# targetOfAssay: P. falciparum apicoplast DNA polymerase (Pf-apPOL) (Plasmodium falciparum)
# Sequence (Q8ILY1 entry or part of it): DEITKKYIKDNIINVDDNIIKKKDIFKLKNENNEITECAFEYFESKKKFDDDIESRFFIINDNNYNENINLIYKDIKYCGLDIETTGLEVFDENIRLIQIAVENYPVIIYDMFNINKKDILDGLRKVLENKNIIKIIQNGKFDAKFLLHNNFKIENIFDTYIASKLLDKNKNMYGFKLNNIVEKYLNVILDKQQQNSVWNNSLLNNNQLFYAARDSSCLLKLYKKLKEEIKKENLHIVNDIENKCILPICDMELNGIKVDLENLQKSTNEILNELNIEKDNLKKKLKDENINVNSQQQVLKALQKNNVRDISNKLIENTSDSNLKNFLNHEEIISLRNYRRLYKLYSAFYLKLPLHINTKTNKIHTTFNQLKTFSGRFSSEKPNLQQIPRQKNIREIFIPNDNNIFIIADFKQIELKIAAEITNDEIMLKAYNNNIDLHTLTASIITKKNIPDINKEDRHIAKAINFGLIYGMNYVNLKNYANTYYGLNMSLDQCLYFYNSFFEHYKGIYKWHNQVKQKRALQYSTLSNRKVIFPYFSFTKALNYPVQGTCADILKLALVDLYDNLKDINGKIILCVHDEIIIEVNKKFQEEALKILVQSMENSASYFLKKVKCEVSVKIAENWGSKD
# protocolDescription: Fluorescence-based high-throughput DNA polymerase assay (molecular beacon), primary screen and dose-response
# Type: biochemical
# measurementConditions: DRC-1; 10'; concentration 5
Record form. Attribute: % inhibition Apo pol 10'. Fill in for each entry.
Answers are plain numbers, in %.

Field: example entries. Status: answers known.
CCCCC(=O)N1CCc2c(nc3cc(-c4ccccc4Cl)[nH]n3c2=O)C1 | 24.2361
O=[N+]([O-])/C=C/c1ccc(-c2ccc(Br)cc2)o1 | 25.8836
CN1CC(=Cc2ccco2)C(=O)C(=Cc2ccco2)C1 | 42.6789
Cc1cccc(-c2nnc3ccc(NS(=O)(=O)c4ccc(C)c(C)c4)nn23)c1 | 15.8571
O=C(O)C(=O)Nc1nc(-c2ccc3c(c2)OCCO3)cs1 | 27.4589
O=c1cc(CN2CCCCC2)c2cc3c(cc2o1)OCO3 | 3.303
Cc1cccc(CC(=O)N2CCc3c(nc4cc(-c5ccccc5)[nH]n4c3=O)C2)c1 | 48
O=C(Nc1ccc2c(c1)Cc1cc(NC(=O)c3ccco3)ccc1-2)c1ccco1 | 5.785
COc1ccc2c(c1)C(c1ccccc1OC)CC(=O)O2 (stereo not shown) | 16.1295
O=C(O)CC1SC(c2ccc3c(c2)OCO3)=NC1=O (stereo not shown) | 10.6697

Give % inhibition Apo pol 10' for each listed item.
1. O=C(Nc1cccc(Cl)c1)Nc1nnc(-c2ccncc2)s1
2. O=C(NC(C(Cl)Cl)S(=O)(=O)c1ccccc1)c1ccccc1 (stereo not shown)
3. CN(C)C=C1SCc2ccccc2C1=O
4. COc1ccc(-c2c(C(F)(F)F)nn3c(=O)cc(-c4cccc([N+](=O)[O-])c4)[nH]c23)cc1
5. O=c1[nH]c2ccc([N+](=O)[O-])cc2c(-c2ccccc2)c1Sc1nc2ccccc2o1

Ans.
1: -6.2957; 2: 25.395; 3: 16.7667; 4: 31.6281; 5: 11.3784

Qu. Which % inhibition Apo pol 10' value is on record for Cc1cc(C)cc(-n2nc3c(c2NC(=O)c2ccco2)CSC3)c1 ?
Ans. 29.0516
